These entries and their values trace back to patent US9365540B2.

- Target under test: human MCH receptor 1 (MCHR1) (Homo sapiens, UniProt Q99705)
- Construct: expressed in transfected cells; host or cells: CHO cell clone 57 (membrane fraction)
- Sequence (Q99705 whole entry): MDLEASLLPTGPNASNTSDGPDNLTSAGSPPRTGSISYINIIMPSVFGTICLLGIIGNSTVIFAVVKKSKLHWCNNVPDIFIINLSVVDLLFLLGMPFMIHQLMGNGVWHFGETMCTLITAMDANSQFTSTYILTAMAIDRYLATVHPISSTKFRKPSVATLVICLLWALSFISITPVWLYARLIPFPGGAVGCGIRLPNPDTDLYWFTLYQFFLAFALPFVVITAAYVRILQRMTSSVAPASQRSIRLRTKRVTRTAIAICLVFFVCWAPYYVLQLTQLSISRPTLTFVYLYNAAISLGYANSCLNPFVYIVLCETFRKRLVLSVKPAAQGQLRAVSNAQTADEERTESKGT
- Assay protocol: human MCH receptor 1 (MCHR1) competitive binding assay with [125I]-MCH(4-19)
- Condition context: test compound 0.1 μM, human MCHR1-expressing CHO cell membrane fraction, 0.1 µM
Measured Binding inhibition rate % (0.1 μM) of individual entries
Note: state the figure and append the unit.

The examples below pair each entry with its known result.
CCc1nc2ccc(-n3ccc(OCc4ccccc4)cc3=O)cc2n1C [Example 47]	62%
Cn1c(C2CC2C(C)(C)O)nc2ccc(-n3ccc(OCc4ccc(Cl)cc4)cc3=O)cc21 (stereo not shown) [Example 154]	91%
Cn1c(C2CC2C(C)(C)F)nc2ccc(-n3ccc(OCc4ccc(Cl)cc4)cc3=O)cc21 (stereo not shown) [Example 209]	89%

Alright, here's another compound for you.
Returns the measured Binding inhibition rate % (0.1 μM) for the input compound. Input: Cn1c([C@H]2C[C@@H]2F)nc2ccc(-n3ccc(OCc4ccc(Cl)cc4)cc3=O)cc21 (racemic) [Example 137]
68%
